B1: Kinesin-like protein KIF16B, residues 1213 to 1273; numbered along this chain, Q96L93 (parent)
chain: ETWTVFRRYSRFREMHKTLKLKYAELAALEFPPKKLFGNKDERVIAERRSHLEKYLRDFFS

- Variants of: B1
- test.details: abundance fitness (aPCA) (normalised: wild type 0, dead -1); higher = more abundant; growth selection in yeast, the domain comes from the species named
- experimental.conditions: Homo sapiens
measurement.label: abundance fitness
# answer = number (no unit)

Q: Report abundance fitness, nothing else, for this variant: "ETWTVFRRYSRFREMHFTLKLKYAELAALEFPPKKLFGNKDERVIAERRSHLEKYLRDFFS"
Ans: -0.685

Q: Tell us which abundance fitness value is on record for "ETWTVFRRYSRFREMHKTLKLKYAELAALMFPPKKLFGNKDERVIAERRSHLEKYLRDFFS"
Ans: 0.347

Q: Give the measured abundance fitness for "ETWTVFRRYSRFREMHKTLKLKYAELAALEFAPKKLFGNKDERVIAERRSHLEKYLRDFFS"
Ans: 0.075

Q: Answer with the recorded abundance fitness for the variant listed here: "ETWTVFRRYSVFREMHKTLKLKYAELAALEFPPKKLFGNKDERVIAERRSHLEKYLRDFFS"
Ans: 0.246

Q: Note down abundance fitness recorded for "ETWTVFRRYSRFREMHKTLKLKYAELAALEFPPKKLFGNKDERVIAERRSHLEKYTRDFFS"
Ans: -0.001

Q: Look up and state reported abundance fitness for "ETWTVFRRYSRFREMHKTLLLKYAELAALEFPPKKLFGNKDERVIAERRSHLEKYLRDFFS"
Ans: -0.671

Q: Read the entry "EPWTVFRRYSRFREMHKTLKLKYAELAALEFPPKKLFGNKDERVIAERRSHLEKYLRDFFS" and write its reported abundance fitness.
Ans: 0.047

Q: Input "ETWTVFRRYSRFREMHKTLKLKYAELAALEFPPKKLFGNKDERVIAERRSHLLKYLRDFFS" , output reported abundance fitness.
Ans: 0.352

Q: Determine its reported abundance fitness: "ETWTVGRRYSRFREMHKTLKLKYAELAALEFPPKKLFGNKDERVIAERRSHLEKYLRDFFS"
Ans: -0.168

Q: Using the record for "ETWTVFRRYSRFREMHKTLKLKYAELAALEFPPKKLFGNKDERVIAEGRSHLEKYLRDFFS" , state its measured abundance fitness.
Ans: 0.108

Q: Specify reported abundance fitness for the variant shown: "ETWTVFRRYSRFREMHKTLKLKYAELAALEFPPKKLFGNKDRRVIAERRSHLEKYLRDFFS"
Ans: 0.122

Q: Read off the recorded abundance fitness for "ETWTVFRRYSRFREMHKTLKLRYAELAALEFPPKKLFGNKDERVIAERRSHLEKYLRDFFS"
Ans: -0.354

Q: Give the value of abundance fitness reported for the following: "ETWTVFRRNSRFREMHKTLKLKYAELAALEFPPKKLFGNKDERVIAERRSHLEKYLRDFFS"
Ans: 0.091

Q: Input "ETWTVFRRYSRFREMHKTLKLKYAELAALEFPPKKLFGNKDEWVIAERRSHLEKYLRDFFS" , output reported abundance fitness.
Ans: -0.155

Q: Using the record for "ETWTVFRRYSRFREMHKTLKMKYAELAALEFPPKKLFGNKDERVIAERRSHLEKYLRDFFS" , state its measured abundance fitness.
Ans: 0.147

Q: Specify abundance fitness for "ETWTVFNRYSRFREMHKTLKLKYAELAALEFPPKKLFGNKDERVIAERRSHLEKYLRDFFS" and stop.
Ans: -0.131

Q: Hello, please tell me recorded abundance fitness for this one: "ETWTVFRRYSRFREMHKTLKLKYAELAALEFPPKKLFGNKDERVIAERRQHLEKYLRDFFS"
Ans: -0.545

Q: Provide one value: measured abundance fitness of "ETWTVFRRYSRFREMHKTLKLKYAELAALEFPPKKLFGNKDERVIAERRHHLEKYLRDFFS"
Ans: -0.039

Q: Tell me abundance fitness reported for "ETWTVFRRYSRFREMHKTLKLKYAELAALEFPPKKLTGNKDERVIAERRSHLEKYLRDFFS"
Ans: -0.566

Q: Give the reported value of abundance fitness for this record: "ETWTVFRRYSRFREMHKTLKLLYAELAALEFPPKKLFGNKDERVIAERRSHLEKYLRDFFS"
Ans: 0.127

Q: Could you please provide reported abundance fitness for "ETWTVFRRYSRFREMHKTLKLKYAELAALEFPPKKMFGNKDERVIAERRSHLEKYLRDFFS" ? Thanks!
Ans: -0.586

Q: Given the variant "ETWTVFRRYSRFREMHKTLKLKYAELAALEFPPKKLFGNKTERVIAERRSHLEKYLRDFFS" , write its reported abundance fitness.
Ans: -0.101
